- Tested on: NCI-H226 lung
- Assay summary: NCI tumour cell line growth inhibition, 48 h
Record form. Attribute: TGI. Fill in for each entry.

[ask] # get_value(readout= TGI, system= NCI-H226 lung) for O=C1c2ccccc2C(=O)c2c1ccc(C(Br)Br)c2[N+](=O)[O-]
[reply] 2.62 µM

[ask] CN(CCc1ccc(Cl)c(Cl)c1)[C@H]1CCCC[C@H]1N1CCCC1 , same question.
[reply] > 100 µM

[ask] COc1ccccc1/C=C\c1cnnc2ccccc12 , same question.
[reply] > 10 µM

[ask] CC[C@]12C=CCN3CCC4(c5cc(N=Nc6ccccc6)c(OC)cc5N(C)[C@H]4[C@@](O)(C(=O)OC)[C@@H]1OC(C)=O)[C@@H]32 (some centres undefined) , same question.
[reply] 51.5 µM

[ask] O=C1c2ccccc2C(=O)c2c(NCCCNCCO)ccc(NCCCNCCO)c21 , same question.
[reply] 12.3 µM

[ask] COc1ccc(C(O)c2ccc3c(c2)OCO3)cc1 (centres undefined) , same question.
[reply] > 100 µM

[ask] Nc1[nH]c(=O)ncc1F , same question.
[reply] > 100 µM

[ask] Cl.[Pt].[c-]1ccccc1-c1ccccn1.c1ccc(P(c2ccccc2)C([PH+](c2ccccc2)c2ccccc2)[PH+](c2ccccc2)c2ccccc2)cc1 , same question.
[reply] 9.81 µM

[ask] Oc1ccc2oc3ncc(Cl)c(-c4ccccc4)c3c2c1 , same question.
[reply] > 100 µM

[ask] O=C(O)/C=C(/CC(=O)O)C(=O)O , same question.
[reply] 45.6 µM

[ask] Cc1ccc(Cl)cc1Nc1nc(C(F)(F)F)ccc1C(=O)Nc1cccc(C(F)(F)F)c1 , same question.
[reply] 25.5 µM

[ask] S=C(N/N=C\C=N/NC(=S)N1CCCCCC1)N1CCCCCC1 , same question.
[reply] > 100 µM

[ask] CNC(=O)CCC(NC(C)=O)C(=O)NC(Cc1ccc(NC(=O)CCCCC(C)=O)cc1)C(=O)NC(CCC(=O)NC)C(=O)NC (centres undefined) , same question.
[reply] > 100 µM

[ask] CCSc1oc(-c2ccccc2)nc1[P+](c1ccccc1)(c1ccccc1)c1ccccc1 , same question.
[reply] 1.86 µM

[ask] CN1/C(=C\C(I)C(I)C2=[N+](C)c3ccccc3C2(C)C)C(C)(C)c2ccccc21 (centres undefined) , same question.
[reply] 24.2 µM

[ask] COc1ccc(C2OC(=O)c3c2ccc2ccccc32)c(C)c1 (centres undefined) , same question.
[reply] 67.6 µM

[ask] CCOC(=O)C(C)(C)Oc1ccc2c(=O)cc(-c3ccccc3)oc2c1 , same question.
[reply] 47 µM

[ask] COc1ccc2cccc(C(=O)c3ccc(C)c4c3CCC4)c2c1 , same question.
[reply] > 100 µM

[ask] CN(C)CCOC(=O)COc1ccc(Cl)cc1 , same question.
[reply] > 100 µM

[ask] CN(C(=O)C1(C(=O)C=[N+]=[N-])CC1)c1ccccc1 , same question.
[reply] > 100 µM

[ask] CCOC(=O)c1ccc(C(=O)C(C(C)=O)C(=O)OC(C)(C)C)n1C (centres undefined) , same question.
[reply] > 100 µM

[ask] O=C(/C=C/c1ccc(-c2ccccc2[N+](=O)[O-])o1)NCc1ccc(C(=O)NCCc2ccccc2)cc1 , same question.
[reply] > 100 µM

[ask] Nc1nc(Cl)cc(N=Nc2ccccc2)n1 , same question.
[reply] > 100 µM

[ask] O=C1NC(=S)N/C1=C/c1ccccc1O , same question.
[reply] > 100 µM

[ask] COc1ccc(SC2c3cc(OC)c(OC)cc3Oc3nc(N)c(C#N)c(N)c32)cc1 (centres undefined) , same question.
[reply] 2.68 µM

[ask] CCOC(=O)C1N(S(=O)(=O)c2ccc(C)cc2)CCC12c1ccccc1N(C(C)=O)C2C(/C=C/C(=O)OC)=C/C(=O)OC (centres undefined) , same question.
[reply] > 100 µM

[ask] COc1cc2cc(C(=O)N3CC(CCl)c4c3cc(N)c3ccccc43)[nH]c2cc1OCCN(C)C (centres undefined) , same question.
[reply] 0.0224 µM

[ask] O=P(Oc1ccc(Cl)cc1)(Oc1ccc(Cl)cc1)N1CC1 , same question.
[reply] > 10 µM

[ask] CC(C)C[C@H](NC(=O)[C@H](CCc1ccccc1)NC(=O)CN1CCOCC1)C(=O)N[C@@H](Cc1ccccc1)C(=O)N[C@@H](CC(C)C)C(=O)[C@@]1(C)CO1 , same question.
[reply] < 0.0175 µM
